# ASSAY_EXPLANATION: binders from COS7 lysate, DM2A8 probe, primary screen, torsin A project, cell lysate, small-molecule microarray, fluorescence 635/667 (AID 1065)
# EXPERIMENTAL_PARAMETERS: higher = more signal, COS7 lysate expressing mutant human TOR1A
MEASURED_PROPERTY: composite z-score
Give bare numbers.

Sample records with composite z-score:
CCCC=C(CCC)[C@@H](NC(=O)c1ccc(C(F)(F)F)cc1)c1ccccc1
0.333
CCN1C(C)=C(C(=O)OC)[C@@H](c2ccccc2)N2C(=O)[C@@]3(C(=O)OC)O[C@@]12[C@@H]1C(=O)CCC[C@@H]13
0.33

Items follow; give composite z-score for each.
1. C=CCOC(=O)[C@@H]1[C@H]2C(=O)O[C@H](c3ccccc3)[C@H](c3ccccc3)N2[C@H](c2ccc(OCCOC(=O)[C@H]3C[C@H]4C(=O)N[C@@H](CCCCNC(C)=O)C(=O)N4[C@H]3c3ccc(O)cc3)cc2)[C@@]12C(=O)Nc1ccc(I)cc12
2. CCCC=C(CCC)[C@@H](NC(=O)c1ccccc1)c1ccccc1
3. COC(=O)C1=CC(c2ccc(CO)cc2)=CC(C2CC2)N(Cc2sc3ccccc3c2Cl)C=C1C(=O)OC (stereo not drawn)
4. [N-]=[N+]=NCc1ccccc1C[C@]1(C(N)=O)N=C(c2ccc(OCCCO)cc2)O[C@H]1c1ccccc1CN=[N+]=[N-]

Return:
1. 0.242
2. -0.239
3. 1.99
4. 1.14

Items follow; give composite z-score for each.
1. C=CC[C@]1(C(=O)O)N=C(c2ccc(OCCCO)cc2)O[C@H]1c1ccccc1N=[N+]=[N-]
2. Cc1ccc(S(=O)(=O)N[C@H]2COC(=O)CC=C[C@H](C)COC(=O)N[C@@H](C)C(=O)CC=C[C@@H]2C)cc1
3. C=CCNC(=O)[C@@H]1[C@H]2C(=O)O[C@H](c3ccccc3)[C@H](c3ccccc3)N2[C@H](c2ccc(OCCO)cc2)[C@@]12C(=O)N(C(=O)OCCOC)c1ccc(C#CC3(O)CCCCCC3)cc12
4. COC(=O)Cn1c(C(=O)N2CCCC2)cc2c1C[C@H]1CN(C(=O)c3ccccc3)[C@@](Cc3ccc(OC)cc3)(C(=O)OC)[C@@H]21
5. Cc1ccc(S[C@]2(C(=O)NCCCN(C)C)CC(=O)N(Cc3ccccc3)[C@@H]2c2ccc(CO)cc2I)cc1

Return:
1. -0.258
2. 1.16
3. 1.16
4. -0.157
5. -1.08

Items follow; give composite z-score for each.
1. CCOC(=O)C[C@H]1[C@H](OC(=O)Cc2ccc3c(c2)OCO3)[C@@H](NC(=O)c2ccc3ccccc3c2)c2cc(OCCCO)ccc2N1C(=O)Cc1ccc(OC)cc1
2. CC(c1ccccc1)C(O)C1C=CC2C(=O)N(C)C(=O)C2N1N(c1ccccc1)c1ccccc1 (stereo not drawn)
3. C=CCC(OC(C)=O)[C@@H]1[C@@H](N(Cc2cccc3ccccc23)C(=O)c2ccc(C)cc2)c2cc(OCCCO)ccc2N1C(=O)c1ccc(-c2ccccc2)cc1 (stereo partly drawn)
4. CC[C@@H]1C=C(C(=O)O)[C@H](c2ccccc2)N1S(=O)(=O)c1ccc([N+](=O)[O-])cc1
5. CO[C@H]1COC(=O)[C@H](Cc2ccccc2)NC(=O)CC=C[C@@H](C)[C@H](OC)COC(=O)CC=C[C@@H]1C

Return:
1: 0.237; 2: 0.23; 3: 0.529; 4: -0.0271; 5: 0.421

Items follow; give composite z-score for each.
1. COc1cccc([C@H]2N[C@H](C(=O)O)CC[C@@H]2C)c1
2. CC1CC/C=C\[C@H]2OC34C=CCN(Cn5nnc6ccccc65)C(=O)[C@H]3N(C(C)CO)C(=O)[C@@H]4C2C(=O)O1 (stereo partly drawn)
3. CO[C@@H]1COC(=O)[C@@H]2CCCN2C(=O)CC=C[C@@H](C)[C@H](OC)COC(=O)[C@@H]2CCCN2C(=O)CC=C[C@H]1C
4. CCc1cccc(NC(=O)O[C@H]2[C@H](OC(=O)Nc3ccccc3)[C@@H](OC(=O)Nc3ccccc3)[C@@H](OC)O[C@@H]2CO)c1
5. COC(=O)c1c(CC[C@@H](CO)NC(=O)N[C@H](Cn2cc(-c3cncn3C)nn2)C(C)C)oc(C(C)=O)c1C(=O)OC
6. COC(=O)[C@@]1(Cc2ccc(OC)cc2)[C@H]2c3cc(C(=O)N(C)C)n(Cc4ccc(C)c(F)c4F)c3C[C@H]2CN1C(=O)c1ccccc1
7. CSCC[C@@H]1NC(=O)CC=C[C@@H](C)COC(=O)[C@H](CCSC)NC(=O)CC=C[C@@H](C)COC1=O

Return:
1: 0.0291; 2: -1.38; 3: 0.164; 4: 0.624; 5: 0.874; 6: 0.251; 7: 1.31

Items follow; give composite z-score for each.
1. CCOC(=O)C1=C[C@@H](c2ccccc2)N(S(=O)(=O)c2ccc(C)cc2)[C@H]1c1ccc(F)cc1
2. C[N+](C)(C)CCCCNC(=O)[C@@H]1C[C@@H]2C(=O)N3CCC[C@H]3C(=O)N2[C@@H]1c1cccc(OCCO)c1
3. CCCC[C@H]1OB(O)C[C@H]2C1=C(COC)C[C@H]1C(=O)N(Cc3ccccc3)C(=O)[C@H]12
4. NC(=O)NCC#Cc1ccc2c(c1)[C@]1(C(=O)N2)[C@H](c2ccccc2OCCO)N2[C@H](c3ccccc3)[C@H](c3ccccc3)OC(=O)[C@H]2[C@@H]1C(=O)N1CCN(c2ncccn2)CC1
5. C#C[C@H](O[Si](C#Cc1ccccc1)(C(C)C)C(C)C)c1ccccc1

Return:
1. 0.347
2. 1.3
3. 0.323
4. 0.195
5. -0.232

Origin of values: PubChem BioAssay
